The origin of these recorded values is paper PMC8839210.

molecular target: URAT1 (Homo sapiens, UniProt Q96S37); construct: The complete human URAT1 cDNA in pEGFP-C1; assay: Urate transport assay using URAT1-expressing 293A cells; conditions: [14C]-urate 5 μM, 20 s, 37 °C; URAT1-expressing 293A cells; read-out: IC50 against URAT1-mediated urate transport
Sequence (Q96S37 whole entry): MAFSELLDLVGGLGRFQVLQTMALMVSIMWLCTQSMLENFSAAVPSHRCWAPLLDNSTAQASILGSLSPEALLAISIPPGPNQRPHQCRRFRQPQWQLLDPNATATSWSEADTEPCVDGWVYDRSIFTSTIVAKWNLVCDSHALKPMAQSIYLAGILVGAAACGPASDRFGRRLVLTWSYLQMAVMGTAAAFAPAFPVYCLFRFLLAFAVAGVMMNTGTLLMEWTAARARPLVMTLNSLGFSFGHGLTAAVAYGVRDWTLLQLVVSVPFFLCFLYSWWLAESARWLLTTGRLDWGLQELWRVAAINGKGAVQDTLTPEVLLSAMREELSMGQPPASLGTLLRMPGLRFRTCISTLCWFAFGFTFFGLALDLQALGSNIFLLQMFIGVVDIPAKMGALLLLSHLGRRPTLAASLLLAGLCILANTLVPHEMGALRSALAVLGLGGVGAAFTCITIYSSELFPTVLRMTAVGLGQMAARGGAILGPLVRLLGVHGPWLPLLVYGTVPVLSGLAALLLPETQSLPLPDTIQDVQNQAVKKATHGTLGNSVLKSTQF
pIC50: −log10 of the molar value.
Quantity Name: pIC50

> print(dat)
                                   compound  number
1  O=c1c(O)c(-c2ccc(O)c(O)c2)oc2cc(O)cc(O)c12 [Quercetin]    4.90
2  O=c1cc(-c2ccc(O)c(O)c2)oc2cc(O)cc(O)c12 [Luteolin]    4.59
3  O=c1c(O)c(-c2ccc(O)c(O)c2)oc2cc(O)ccc12 [Fisetin]    5.12
4  O=c1c(O)c(-c2ccc(O)c(O)c2)oc2c(O)c(O)cc(O)c12 [Gossypetin]    4.50
5  O=c1c(O)c(-c2ccc(O)c(O)c2)oc2cc(O)c(O)c(O)c12 [Quercetagetin]    4.74
6  O=c1c(O)c(-c2cc(O)c(O)c(O)c2)oc2cc(O)cc(O)c12 [Myricetin]    4.74
7  O=c1c(-c2ccc(O)cc2)coc2cc(O)cc(O)c12 [Genistein]    3.99
